Molecular target: High affinity nerve growth factor receptor (Homo sapiens, UniProt P04629)
Sequence (P04629 whole entry, the tested form may be a part): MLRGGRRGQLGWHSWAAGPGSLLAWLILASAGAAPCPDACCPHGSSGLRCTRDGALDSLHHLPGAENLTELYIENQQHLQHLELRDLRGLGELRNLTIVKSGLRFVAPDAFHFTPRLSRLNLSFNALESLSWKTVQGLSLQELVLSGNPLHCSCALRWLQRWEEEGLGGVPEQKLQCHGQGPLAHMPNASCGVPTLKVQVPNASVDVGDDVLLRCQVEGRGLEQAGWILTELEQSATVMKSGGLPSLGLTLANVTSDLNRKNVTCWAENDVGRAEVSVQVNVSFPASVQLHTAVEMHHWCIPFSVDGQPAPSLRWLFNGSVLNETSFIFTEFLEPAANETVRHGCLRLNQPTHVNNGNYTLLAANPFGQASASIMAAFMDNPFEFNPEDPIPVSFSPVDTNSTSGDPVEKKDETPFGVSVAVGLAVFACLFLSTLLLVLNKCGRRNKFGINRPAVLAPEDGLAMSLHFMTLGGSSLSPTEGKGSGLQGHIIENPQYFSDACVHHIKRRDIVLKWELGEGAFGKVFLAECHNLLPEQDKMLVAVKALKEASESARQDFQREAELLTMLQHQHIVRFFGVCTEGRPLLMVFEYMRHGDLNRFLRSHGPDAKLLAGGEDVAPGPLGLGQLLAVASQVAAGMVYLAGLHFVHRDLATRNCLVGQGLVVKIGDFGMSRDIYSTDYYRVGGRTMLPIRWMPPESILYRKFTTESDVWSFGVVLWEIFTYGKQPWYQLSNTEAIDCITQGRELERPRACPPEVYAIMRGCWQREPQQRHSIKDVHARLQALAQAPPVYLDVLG
Experiment: Inhibition of recombinant human wild-type N-terminal GST-His6-fused TRKA C-terminal domain (G443 to G796 residues) expressed in Sf9 insect cells using TRK-C derived peptide as substrate measured after 60 mins in presence of [gamma-33P]-ATP by scintillation counting method
pIC50: −log10 of the molar value.

- record smiles: "CN(CCc1ccc(-c2ccccc2)cc1)Cc1cn(C)c2ccc(C(=O)Nc3ccc(F)cc3)cc12"
  tested target: "High affinity nerve growth factor receptor (Homo sapiens, UniProt P04629)"
  pIC50: 4.80

* * *

Target: Mitogen-activated protein kinase 3 (Homo sapiens)
Sequence (P27361 whole entry, the tested form may be a part): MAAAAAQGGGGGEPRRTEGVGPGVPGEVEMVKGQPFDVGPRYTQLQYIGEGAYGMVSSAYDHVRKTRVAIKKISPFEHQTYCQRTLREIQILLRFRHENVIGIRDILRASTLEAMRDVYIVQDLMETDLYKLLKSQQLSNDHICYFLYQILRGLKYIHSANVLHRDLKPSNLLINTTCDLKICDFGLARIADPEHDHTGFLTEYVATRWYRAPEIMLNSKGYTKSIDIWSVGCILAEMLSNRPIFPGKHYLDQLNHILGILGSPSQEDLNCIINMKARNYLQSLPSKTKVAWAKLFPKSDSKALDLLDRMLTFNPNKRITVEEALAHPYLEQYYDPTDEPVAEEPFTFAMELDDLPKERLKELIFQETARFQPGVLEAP
Test: Inhibition of recombinant human full-length N-terminal GST-His6 fused ERK1 (M1 to P379 residues) expressed in Escherichia coli using RBER-CHKtide as substrate measured after 60 mins in presence of [gamma-33P]-ATP by scintillation counting method
attribute measured: IC50 (µM)

- record smiles: "CN(CCc1ccc(-c2ccccc2)cc1)Cc1cn(C)c2ccc(C(=O)Nc3ccc(F)cc3)cc12"
  attribute measured: "IC50"
  value unit: "µM"
  value measured: 65
